Molecular target: BRD4-BD1 (Homo sapiens, UniProt O60885)
Construct: made in house; host or cells: T7 phage grown in an E. coli host derived from the BL21 strain
Test: Binding affinity to BRD4-BD1 (bromoKdELECT assay)
Details: 11-point 3-fold dilution series
measure: Kd

// Kd (BRD4-BD1 (Homo sapiens, UniProt O60885)) for CCS(=O)(=O)Nc1ccc(Oc2cccc(OCCOCCOCCOCCOCCOCCOCCOC3CCN(c4ncc(C(=O)N[C@H]5C(C)(C)[C@H](Oc6ccc(C#N)c(Cl)c6)C5(C)C)cn4)CC3)c2)c(-c2cn(C)c(=O)c3[nH]ccc23)c1 [Compound I-9] = 0.05 to 0.5 µM

// Kd (BRD4-BD1 (Homo sapiens, UniProt O60885)) for CCS(=O)(=O)Nc1ccc(OCC(OCCOC2CCN(c3ncc(C(=O)N[C@H]4C(C)(C)[C@H](Oc5ccc(C#N)c(Cl)c5)C4(C)C)cn3)CC2)C2CC2)c(-c2cn(C)c(=O)c3[nH]ccc23)c1 (stereo partly shown) [Compound I-68] = 0.05 to 0.5 µM

Parameter requested: Kd. Apply to each item below.
1. Cn1cc(-c2cc(C(C)(C)O)ccc2Oc2cccc(CCCN3CCN(c4ncc(C(=O)N[C@H]5C(C)(C)[C@H](Oc6ccc(C#N)c(Cl)c6)C5(C)C)cn4)CC3)c2)c2cc[nH]c2c1=O [Compound I-110]
2. CCS(=O)(=O)Cc1ccc(Oc2cccc(CCCN3CCN(c4ncc(C(=O)N[C@H]5C(C)(C)[C@H](Oc6ccc(C#N)c(Cl)c6)C5(C)C)cn4)CC3)c2)c(-c2cn(C)c(=O)c3[nH]ccc23)c1 [Compound I-133]

["0.5 to 2.5 µM", "0.05 to 0.5 µM"]

Taken from patent US20250388605A1.
